Measured values drawn from patent US9732075B2 for this set.

Consider the following compounds; for each one, report its IC50.
- Tested system: human orexin-1 receptor (Homo sapiens (Human))
- Sequence (O43613 whole entry): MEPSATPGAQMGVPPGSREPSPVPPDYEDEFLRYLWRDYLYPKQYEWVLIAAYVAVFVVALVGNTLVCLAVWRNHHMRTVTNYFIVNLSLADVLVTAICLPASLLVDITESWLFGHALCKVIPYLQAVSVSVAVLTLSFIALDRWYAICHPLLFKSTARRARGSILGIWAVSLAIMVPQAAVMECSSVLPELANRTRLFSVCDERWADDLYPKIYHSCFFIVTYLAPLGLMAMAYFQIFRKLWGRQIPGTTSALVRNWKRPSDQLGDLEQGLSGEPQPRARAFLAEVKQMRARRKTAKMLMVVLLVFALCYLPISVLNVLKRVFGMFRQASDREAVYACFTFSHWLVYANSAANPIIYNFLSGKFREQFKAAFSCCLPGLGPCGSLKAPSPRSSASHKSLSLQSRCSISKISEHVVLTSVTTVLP
- Assay remarks: In vitro assay: intracellular calcium measurements (FLIPR), antagonistic activity
- Run conditions: CHO cells expressing human orexin-1 receptor, orexin-A agonist, geometric mean, read-out: IC50 Ox1

Short answer for Cc1ccc(-c2cccc(C(F)(F)F)c2)c(C(=O)N2CCC[C@@]2(C)c2nc3cc(C(F)(F)F)c(Cl)cc3[nH]2)c1 [Ex. 5.155] : IC50 was 134 nM

Short answer for CO[C@@H]1C[C@@H](c2nc3ccc(Cl)c(C)c3[nH]2)N(C(=O)c2ccccc2-c2ccccc2)C1 [Ex. 3.39] : IC50 was 74 nM

Short answer for C=C1C[C@@H](c2nc3cc(C)c(C)cc3[nH]2)N(C(=O)c2ccccc2-n2nccn2)C1 [Ex. 6.194] : IC50 was 51 nM

Short answer for Cc1cc(C(=O)N2CCC[C@@]2(C)c2nc3c(C)cc(Br)cc3[nH]2)c(-c2ccccc2)cn1 [Ex. 5.310] : IC50 was 32 nM

----------
- Tested system: human orexin-1 receptor (Homo sapiens (Human))
- Assay remarks: In vitro assay: intracellular calcium measurements (FLIPR), antagonistic activity
- Run conditions: CHO cells expressing human orexin-1 receptor, orexin-A agonist, geometric mean, read-out: IC50 Ox1
Consider the following compounds; for each one, report its pIC50.
// returns pIC50 (minus log10 of molar concentration), number only

pIC50 of Cc1ccc(-n2nccn2)c(C(=O)N2CCC[C@@]2(C)c2nc3cc(C(F)(F)F)ccc3[nH]2)c1 , assay on human orexin-1 receptor (Homo sapiens (Human)), is 8.10

pIC50 of COc1ccc2[nH]c([C@]3(C)CCCN3C(=O)c3cc(C)ccc3-n3nccn3)nc2c1 , assay on human orexin-1 receptor (Homo sapiens (Human)), is 7.05

pIC50 of C=C1CC(c2nc3c(C)cc(C)cc3[nH]2)N(C(=O)c2cc(C)sc2-c2ccc(C)c(C)c2)C1 (stereo not drawn) , assay on human orexin-1 receptor (Homo sapiens (Human)), is 8.40

pIC50 of Cc1nc(C(=O)N2CCCC2c2nc3c4c(ccc3[nH]2)OCCO4)c(-c2cccc(Cl)c2)s1 (racemic) , assay on human orexin-1 receptor (Homo sapiens (Human)), is 6.87

pIC50 of Cc1cc(C(=O)N2CCC[C@@]2(C)c2nc3cc(F)c(Br)cc3[nH]2)c(-n2nccn2)cc1C , assay on human orexin-1 receptor (Homo sapiens (Human)), is 9.00

pIC50 of Cc1nc(C(=O)N2CCCC2c2nc3cc(C(F)(F)F)ccc3[nH]2)c(-c2cccc(Cl)c2)s1 (stereo not drawn) , assay on human orexin-1 receptor (Homo sapiens (Human)), is 7.38

pIC50 of COc1cc(C(=O)N2CCC[C@@]2(C)c2nc3cc(F)c(Br)cc3[nH]2)c(-n2nccn2)cc1OC , assay on human orexin-1 receptor (Homo sapiens (Human)), is 7.08

pIC50 of Cc1ccc(-c2sccc2C(=O)N2CC[C@H](C)[C@H]2c2nc3c(Cl)cccc3[nH]2)cc1C , assay on human orexin-1 receptor (Homo sapiens (Human)), is 9.00

pIC50 of Cc1c(Cl)ccc2[nH]c([C@@H]3[C@@H](C)CCN3C(=O)c3cc(C#N)ccc3-c3ccccc3)nc12 , assay on human orexin-1 receptor (Homo sapiens (Human)), is 8.70
